Target: T1, CXCR4 wt (transfected 293T cells) (human, UniProt P61073-1 1-352)
T1 construct: human CXCR4, isoform 1 or b; eGFP is expressed separately from an IRES, not fused; also called wild-type CXCR4; source: 293T cells, transiently transfected (pcDNA3.1 CXCR4-IRES-eGFP), on cells
T1 sequence (P61073 whole entry, the tested form may be a part, canonical isoform): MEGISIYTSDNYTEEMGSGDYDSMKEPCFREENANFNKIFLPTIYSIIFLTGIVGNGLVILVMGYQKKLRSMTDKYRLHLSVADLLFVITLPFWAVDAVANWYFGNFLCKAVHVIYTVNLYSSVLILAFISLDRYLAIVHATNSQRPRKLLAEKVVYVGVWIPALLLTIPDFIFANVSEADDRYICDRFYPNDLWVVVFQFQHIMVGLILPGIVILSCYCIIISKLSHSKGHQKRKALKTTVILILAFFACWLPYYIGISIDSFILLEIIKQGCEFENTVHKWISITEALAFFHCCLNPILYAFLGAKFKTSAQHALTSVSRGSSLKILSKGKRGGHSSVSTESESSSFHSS
Test: flow cytometry on cells; 12G5 antibody competition on 293T cells transiently transfected with CXCR4 wt or mutants (IRES-eGFP vector), eGFP-positive cells gated; serially diluted peptide with a constant concentration of CXCR4 antibody clone 12G5, 2 h; bound antibody read; IC50 by nonlinear regression
Details: one partner purified
quantityName: pIC50
pIC50 is a log-scale quantity: -log10 of the concentration expressed in molar.

For LVRYTKKVPQVSTPTL (source: synthetic peptide (Fmoc solid-phase synthesis, HPLC-purified)) [EPI-X4 (Alb408-423)] the binder record lists pIC50 as 5.16
